system: Meloidogyne incognita eggs; test: M. incognita egg hatching; assay type: in vivo; conditions: 5 ppm, 168 hr
attribute.measured: Eggs Hatched No.
Give the figure only, with no unit attached.

In the examples that follow, each entry is paired with its recorded Eggs Hatched No..
[
  {
    "compound": "O=S(=O)(O)c1cc(N=C=S)ccc1/C=C/c1ccc(N=C=S)cc1S(=O)(=O)O [DIDS, reference compound]",
    "meas.value": 159
  },
  {
    "compound": "O=C(O)c1c2ccccc2cc2ccccc12",
    "meas.value": 155
  },
  {
    "compound": "CC1(C2CCCC2)Cc2cc(OCC(=O)O)c(Cl)c(Cl)c2C1=O (single isomer, unassigned; (+))",
    "meas.value": 161
  }
]

Moving on to the next compound.
For the compound O=C(O)c1cc([N+](=O)[O-])ccc1NCCCc1ccccc1 , what Eggs Hatched No. is on record?
149
